Tested on: Pseudomonas sp. strain 4G
Type: cell-based
particulars: 24 h
Listed below: MIC threshold values of heavy metals values for each entry.
measurement kind: MIC threshold values of heavy metals

# compound, tested target, value
data = [
    ("O=S(=O)([O-])[O-].[Cd+2] [Cd(II), Cadmium sulphate]", "Pseudomonas sp. strain 4G", "0.1 mM/L"),
    ("[Cl][Ni][Cl] [Ni(II), Nickel chloride]", "Pseudomonas sp. strain 4G", "1 mM/L"),
    ("O=S(=O)([O-])[O-].[Zn+2] [Zn(II), Zinc sulphate]", "Pseudomonas sp. strain 4G", "4 mM/L"),
    ("O=S(=O)([O-])[O-].[Cu+2] [Cu(II), Copper sulphate]", "Pseudomonas sp. strain 4G", "3 mM/L"),
]

###

Test system: Stenotrophomonas sp. strain 5L
protocol details: Antibiotic MIC by E-test
Format: cell-based
particulars: Stenotrophomonas, 24 h, read-out: MIC threshold values for a given antibiotic
Listed below: MIC values for each entry.

# compound, value comparator, MIC / µg/mL
data = [
    ("O=C(O)c1cn(C2CC2)c2cc(N3CCNCC3)c(F)cc2c1=O [CIP, ciprofloxacin]", "=", 4),
    ("Cc1cc(NS(=O)(=O)c2ccc(N)cc2)no1 [RL, sulfamethoxazole]", "=", 8),
    ("CO/N=C(\\C(=O)N[C@@H]1C(=O)N2C(C(=O)O)=C(CSc3nc(=O)c(=O)[nH]n3C)CS[C@H]12)c1csc(N)n1 [TX, ceftriaxone]", "≥", 256),
    ("CN(C)[C@@H]1C(O)=C(C(N)=O)C(=O)[C@@]2(O)C(O)=C3C(=O)c4c(O)cccc4[C@@](C)(O)[C@H]3C[C@@H]12 [TE, tetracycline]", "=", 8),
    ("CCn1cc(C(=O)O)c(=O)c2cc(F)c(N3CCNCC3)cc21 [NX, norfloxacin]", "=", 32),
    ("[H]/N=C(/N)N[C@H]1[C@H](O)[C@@H](O)[C@H](O[C@@H]2O[C@@H](C)[C@](O)(C=O)[C@H]2O[C@@H]2O[C@@H](CO)[C@H](O)[C@@H](O)[C@@H]2NC)[C@@H](N/C(N)=N\\[H])[C@@H]1O [S, streptomycin]", "=", 64),
    ("CC[C@H]1OC(=O)[C@H](C)[C@@H](O[C@H]2C[C@@](C)(OC)[C@@H](O)[C@H](C)O2)[C@H](C)[C@@H](O[C@@H]2O[C@H](C)C[C@H](N(C)C)[C@H]2O)[C@](C)(O)C[C@@H](C)C(=O)[C@H](C)[C@@H](O)[C@]1(C)O [E, erythromycin]", "≥", 256),
    ("CC1(C)S[C@@H]2[C@H](NC(=O)Cc3ccccc3)C(=O)N2[C@H]1C(=O)O [P, penicillin G]", "≥", 32),
]

###

Listed below: MIC values for each entry.
System: Brevundimonas sp. strain 5N
protocol details: Antibiotic MIC by E-test
Type: cell-based
particulars: Brevundimonas, 24 h, read-out: MIC threshold values for a given antibiotic
Procedure: A disc diffusion method was performed to determine the susceptibility of bacteria to the selected antibiotics. […] In the next stage of the research, MIC values of a given antibiotic for the investigated strains were determined, meaning the lowest concentration of the drug, expressed in mg/L, determined in vitro, which inhibits the growth of bacteria at a defined inoculum density, within a given time (Hryniewicz et at, 2001). […]
measurement kind: MIC (µg/mL)

# compound, value comparator, value
rows = [
    ("CO/N=C(\\C(=O)N[C@@H]1C(=O)N2C(C(=O)O)=C(CSc3nc(=O)c(=O)[nH]n3C)CS[C@H]12)c1csc(N)n1", "≥", 256),
    ("CC[C@H]1OC(=O)[C@H](C)[C@@H](O[C@H]2C[C@@](C)(OC)[C@@H](O)[C@H](C)O2)[C@H](C)[C@@H](O[C@@H]2O[C@H](C)C[C@H](N(C)C)[C@H]2O)[C@](C)(O)C[C@@H](C)C(=O)[C@H](C)[C@@H](O)[C@]1(C)O", "=", 256),
    ("CCn1cc(C(=O)O)c(=O)c2cc(F)c(N3CCNCC3)cc21", "=", 128),
    ("CN(C)[C@@H]1C(O)=C(C(N)=O)C(=O)[C@@]2(O)C(O)=C3C(=O)c4c(O)cccc4[C@@](C)(O)[C@H]3C[C@@H]12", "=", 6),
    ("CC1(C)S[C@@H]2[C@H](NC(=O)Cc3ccccc3)C(=O)N2[C@H]1C(=O)O", "≥", 32),
    ("[H]/N=C(/N)N[C@H]1[C@H](O)[C@@H](O)[C@H](O[C@@H]2O[C@@H](C)[C@](O)(C=O)[C@H]2O[C@@H]2O[C@@H](CO)[C@H](O)[C@@H](O)[C@@H]2NC)[C@@H](N/C(N)=N\\[H])[C@@H]1O", "=", 64),
    ("Cc1cc(NS(=O)(=O)c2ccc(N)cc2)no1", "≥", 1020),
    ("O=C(O)c1cn(C2CC2)c2cc(N3CCNCC3)c(F)cc2c1=O", "≥", 32),
]
